The values you see were collected from patent US6495580B1.

System: human RSV subtype B
experimental.protocol: Cell culture assay for inhibition of pneumovirus replication, RSV-B
Assay type: cell-based
condition.parameters: human respiratory syncytial virus, protection from cytopathic effect
pIC50: −log10 of the molar value.
property.measured: pIC50

compound	property.measured	obs.value
NC(=O)c1ncn([C@@H]2O[C@H](CO)[C@@H](O)[C@H]2O)n1 [Ribavirin, reference compound]	pIC50	4.75

###

Attribute: IC50
System: human RSV subtype B
experimental.protocol: Cell culture assay for inhibition of pneumovirus replication, RSV-B
Assay type: cell-based
condition.parameters: protection from cytopathic effect

molecule	IC50, nM
Cc1nnnn1/N=C/c1ccc(O)c(C(c2ccc(O)cc2)c2cc(/C=N/n3nnnc3C)ccc2O)c1	2
Nc1nnn(N=Cc2ccc(C(c3ccc(O)cc3)c3ccc(C=Nn4nnc(N)n4)cc3O)c(O)c2)n1 (stereo not shown)	1900
Nc1ncnn1N=Cc1ccc(O)c(C(c2ccc(O)cc2)c2cc(C=Nn3ncnc3N)ccc2O)c1 (stereo not shown)	460
Nc1nncn1N=Cc1ccc(O)c(C(c2ccc(O)cc2)c2cc(C=Nn3cnnc3N)ccc2O)c1 (stereo not shown)	150
Nc1nnnn1N=Cc1ccc(O)c(C(c2ccc(O)cc2)c2cc(C=Nn3nnnc3N)ccc2O)c1 (stereo not shown)	8
Nc1nnnn1N=Cc1ccc(O)c(Cc2cc(C=Nn3nnnc3N)ccc2O)c1	47300
COc1ccc(C(c2ccc(C=Nn3nnnc3N)cc2O)c2ccc(C=Nn3nnnc3N)cc2O)cc1 (stereo not shown)	8
